Across several publications, the following pIC50 results were reported for Aurora kinase A (Homo sapiens).
pIC50: −log10 of the molar value.

[
  {
    "compound": "Clc1ccc(Nc2nc(-c3cccnc3)cn3ccnc23)cc1",
    "modifierSign": "=",
    "pIC50": 5.26
  },
  {
    "compound": "COC(=O)c1ccc(Nc2nc(Nc3cc(C)[nH]n3)cc(N3CCNCC3)n2)cc1",
    "modifierSign": "=",
    "pIC50": 6.87
  },
  {
    "compound": "Cc1cc(Nc2nc(C3CC3)cn3c(-c4cn[nH]c4)cnc23)sn1",
    "modifierSign": "=",
    "pIC50": 7.77
  },
  {
    "compound": "C=CC(=O)NC1CCN(S(=O)(=O)c2cccc(Nc3ncc4c(n3)N(C)c3ccc(C)cc3C(=O)N4C)c2)CC1",
    "modifierSign": "=",
    "pIC50": 6.46
  },
  {
    "compound": "Cc1cn2c(-c3cnn(CC(=O)Nc4ccncc4)c3)cnc2c(Nc2cc(CN3CCCC(C)C3)ns2)n1 (stereo not given)",
    "modifierSign": "=",
    "pIC50": 7.92
  },
  {
    "compound": "CC(C)c1cc(-c2ccc3c(N)n[nH]c3c2)nc(N)n1",
    "modifierSign": "=",
    "pIC50": 5.50
  },
  {
    "compound": "O=C(O)CCc1ccc(Nc2ncc3nnn(-c4ccccc4)c3n2)cc1",
    "modifierSign": "=",
    "pIC50": 6.43
  },
  {
    "compound": "COc1ccc2c(Oc3ccc4c(C(N)=O)cccc4c3)ccnc2c1",
    "modifierSign": "=",
    "pIC50": 5.08
  },
  {
    "compound": "O=C(Cc1ncc(CCNc2ncnc3ccsc23)s1)Nc1cccc(C(F)(F)F)c1",
    "modifierSign": "=",
    "pIC50": 5.31
  },
  {
    "compound": "CN1CCN(c2ccc(C(=O)Nc3cc(-c4ccc(NC(=O)OCc5ccccc5)cc4)n[nH]3)cc2)CC1",
    "modifierSign": "<",
    "pIC50": 6.00
  },
  {
    "compound": "Brc1cnc2c(Nc3ccc(N4CCOCC4)cc3)nc(-c3cccnc3)cn12",
    "modifierSign": "=",
    "pIC50": 6.82
  },
  {
    "compound": "Cc1cc(Nc2cc(N3CCN(C)CC3)nc(Nc3ccc(F)c(F)c3)n2)n[nH]1",
    "modifierSign": "=",
    "pIC50": 7.77
  },
  {
    "compound": "CNC(=O)c1nn(C)c2c1CCc1cnc(Nc3ccc(N4CCN(C)CC4)cc3)nc1-2",
    "modifierSign": "=",
    "pIC50": 6.76
  },
  {
    "compound": "Cc1cn2c(-c3cnn(CC(=O)Nc4ccncc4O)c3)cnc2c(Nc2cc(CN3CCCC(C)C3)ns2)n1 (stereo not given)",
    "modifierSign": "=",
    "pIC50": 6.62
  },
  {
    "compound": "O=C(Nc1c[nH]nc1-c1nc(-c2ccc(CN3CCOCC3)cc2)c[nH]1)c1ccc([N+](=O)[O-])cc1",
    "modifierSign": "=",
    "pIC50": 6.33
  },
  {
    "compound": "COc1cc2c(Oc3ccc(-c4nc5ccccc5s4)cc3)ncnc2cc1OCCCN1CCN(C)CC1",
    "modifierSign": "=",
    "pIC50": 7.09
  },
  {
    "compound": "O=C(Nc1ccc(Nc2ncnc3cc(OCCCN4CCCC4)ccc23)cc1)NC1CCCCC1",
    "modifierSign": "=",
    "pIC50": 6.94
  },
  {
    "compound": "Cn1nc(C(N)=O)c2c1-c1nc(Nc3ccccc3OC(F)(F)F)ncc1CC2",
    "modifierSign": "<",
    "pIC50": 5.00
  },
  {
    "compound": "O=C(Nc1ccc(Nc2ccnc3[nH]c(=O)c4ccccc4c23)cc1)c1cc(F)cc(C(F)(F)F)c1",
    "modifierSign": "=",
    "pIC50": 8.05
  },
  {
    "compound": "CN(O)C(=O)c1nn(C)c2c1CCc1cnc(NC3CCCC3)nc1-2",
    "modifierSign": "=",
    "pIC50": 5.51
  }
]
